The entries below come with measured EC50 values attached.
Subject of test: T1, Tim3-ECD-His-Biotin (human, UniProt Q8TDQ0 22-202)
T1 construct: also called human Tim3 (ELISA); Biochem Human
Test: ELISA, human Tim3; EC50 relative to the sample's max value

Binder	EC50
Tim3_0016 variant (Tim3_0018) (antibody, V domains shown, also called TIM3-0016 variant (0018); aTim3 0018) VH: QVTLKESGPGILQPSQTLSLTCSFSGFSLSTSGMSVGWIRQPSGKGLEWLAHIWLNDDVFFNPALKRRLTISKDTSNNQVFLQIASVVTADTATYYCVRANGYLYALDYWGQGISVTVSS VL: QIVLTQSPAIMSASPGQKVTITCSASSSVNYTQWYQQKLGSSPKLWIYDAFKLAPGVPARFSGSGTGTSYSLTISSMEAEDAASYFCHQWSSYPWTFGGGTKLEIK	0.0161 mg/L
aTim3 0016MutNS (antibody, V domains shown) VH: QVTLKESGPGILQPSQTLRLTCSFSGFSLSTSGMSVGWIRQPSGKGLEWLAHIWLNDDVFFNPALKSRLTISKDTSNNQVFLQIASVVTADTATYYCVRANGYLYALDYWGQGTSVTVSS VL: QIVLTQSPAIMSASPGQKVTITCSASSSVSYTQWYQQKLGSSPKLWIYDAFKLAPGVPARFSGSGTGTSYSLTISSMEAEDAASYFCHQWSSYPWTFGGGTKLEIK	0.0085 mg/L
aTim3 0018MutNQ (antibody, V domains shown, also called aT3m3 0018MutNQ) VH: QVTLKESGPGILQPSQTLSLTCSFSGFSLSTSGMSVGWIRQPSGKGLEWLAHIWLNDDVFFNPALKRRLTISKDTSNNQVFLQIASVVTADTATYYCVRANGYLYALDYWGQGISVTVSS VL: QIVLTQSPAIMSASPGQKVTITCSASSSVQYTQWYQQKLGSSPKLWIYDAFKLAPGVPARFSGSGTGTSYSLTISSMEAEDAASYFCHQWSSYPWTFGGGTKLEIK	0.012 mg/L
aTim3 0018MutNS (antibody, V domains shown, also called aT3m3 0018MutNS) VH: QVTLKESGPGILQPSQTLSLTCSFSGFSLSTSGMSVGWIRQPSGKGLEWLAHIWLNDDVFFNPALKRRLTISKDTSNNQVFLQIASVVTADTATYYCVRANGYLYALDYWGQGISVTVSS VL: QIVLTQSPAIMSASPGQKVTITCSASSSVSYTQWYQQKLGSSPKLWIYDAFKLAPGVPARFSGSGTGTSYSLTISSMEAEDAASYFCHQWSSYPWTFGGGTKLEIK	0.0103 mg/L
